Measured values drawn from patent US20230106506A1 for this set.

Reported pIC50 values are given for each entry in this list.
Study Target: PqsR (Pseudomonas aeruginosa)
Construct: transfected with pEAL08-2 plasmid encoding pqsR under control of promoter tac
Sequence (Q9I4X0 whole entry): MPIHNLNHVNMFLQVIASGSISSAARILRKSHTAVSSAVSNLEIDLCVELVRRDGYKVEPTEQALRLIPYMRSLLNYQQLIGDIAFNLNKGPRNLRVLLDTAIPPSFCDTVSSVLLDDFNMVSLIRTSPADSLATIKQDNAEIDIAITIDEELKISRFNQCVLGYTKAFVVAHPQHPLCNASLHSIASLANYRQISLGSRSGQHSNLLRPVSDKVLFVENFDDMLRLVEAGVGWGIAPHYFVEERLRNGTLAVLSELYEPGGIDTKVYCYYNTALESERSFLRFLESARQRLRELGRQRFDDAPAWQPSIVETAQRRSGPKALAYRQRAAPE
Protocol Notes: PqsR reporter gene assay in E. coli (β-galactosidase)
pIC50: −log10 of the molar value.

Solved cases below.
>>> reading("Fc1ccccc1Oc1ccc(-n2cc(CNc3cc(-c4cn[nH]c4)nc(C(F)(F)F)c3)nn2)cc1")
"≥ 7.30"
>>> reading("CC(C)Oc1ccc(-c2ncc(CNc3cc(-c4cn[nH]c4)nc(C(F)(F)F)c3)s2)cc1")
"≥ 7.30"
>>> reading("CC(C)Oc1ccc(-n2cc(CNc3cc(-c4cccnc4)nc(C(F)(F)F)c3)nn2)cc1Cl")
"6.60 to 7.29"

Which measured pIC50 value corresponds to CC(C)Oc1ccc(-n2cc(CNc3cc(Cl)nc(-c4cn[nH]c4)c3)nn2)cc1Cl ?
≥ 7.30

---

Protocol Notes: Metabolic stability in mouse liver microsomes (MLM)
Assay type: in vitro ADME
Particulars: 1 μM compound, 0.5 mg/mL MLM, 1 mM NADPH, 37° C., read-out: half-life (t1/2) towards MLM
Each entry below lists one item and its recorded half-life at 1 µM value.

What does the record list as half-life at 1 µM for CC(C)Oc1ccc(-c2cnc(CNc3cc(-n4cncn4)nc(C(F)(F)F)c3)nc2)cc1Cl ?
> 100 min

Also need CC(C)Oc1ccc(-c2ncc(CNc3cc(-n4cncn4)nc(C(F)(F)F)c3)cn2)cc1 , thanks.
> 100 min

Next up: CC(C)Oc1ccc(-c2ncc(CNc3cc(-c4cc[nH]n4)nc(C(F)(F)F)c3)cn2)cc1Cl
61 to 100 min

---

// values below are reported half-life at 1 µM
Protocol Notes: Metabolic stability in mouse liver microsomes (MLM)
Assay type: in vitro ADME
Particulars: 1 μM compound, 0.5 mg/mL MLM, 1 mM NADPH, 37° C., read-out: half-life (t1/2) towards MLM

As a guide, the following entries are already answered.
>>> reading("CC(C)Oc1ccc(-c2ncc(CNc3cc(-c4cnn(C)c4)nc(C(F)(F)F)c3)s2)cc1 [Compound 13]")
"0.5 to 1 h"
>>> reading("CC(C)Oc1ccc(-c2ncc(CNc3cc(-n4cncn4)nc(C(F)(F)F)c3)s2)cc1Cl [Compound 18]")
"> 1.67 h"

Which half-life at 1 µM value is on record for CC(C)Oc1ccc(-c2cnc(CNc3cc(-c4cn[nH]c4)nc(C(F)(F)F)c3)cn2)cc1 [Compound 27] ?
> 1.67 h

Same question, CC(C)Oc1ccc(-c2ccc(CNc3cc(-c4cn[nH]c4)nc(C(F)(F)F)c3)nn2)cc1Cl [Compound 58] this time
> 1.67 h

Now this one: CC(C)Oc1ccc(-c2ccc(CNc3cc(-n4cncn4)nc(C(F)(F)F)c3)nc2)cc1Cl [Compound 26]
> 1.67 h

Also FC(F)(F)c1cc(NCc2cnc(-c3ccc(Cl)c(Cl)c3)nc2)cc(-c2cn[nH]c2)n1 [Compound 35] , if possible.
> 1.67 h

Could you do the same for CC(C)Oc1ccc(-c2ccc(CNc3cc(-c4cn[nH]c4)nc(C(F)(F)F)c3)cn2)cc1 [Compound 21] , please?
> 1.67 h

Another molecule: Nc1ccc(Oc2ccc(-c3ncc(CNc4cc(-c5cn[nH]c5)nc(C(F)(F)F)c4)cn3)cc2)cc1 [Compound 56]
1.02 to 1.67 h

Record: CC(C)Oc1ccc(-c2ncc(CNc3cc(-c4cn[nH]c4)nc(C(F)(F)F)c3)s2)cc1 [Compound 11]
0.5 to 1 h

Please give the result for CC(C)Oc1ccc(-c2cnc(CNc3cc(-c4cn[nH]c4)nc(C(F)(F)F)c3)nc2)cc1Cl [Compound 47] too.
0.5 to 1 h

Same question for CC(C)Oc1ccc(-n2cc(CNc3cc(-c4cn[nH]c4)nc(C(F)(F)F)c3)nn2)cc1Cl [Compound 07] please.
0.5 to 1 h

CC(C)Oc1ccc(-c2ncc(CNc3cc(-c4cn[nH]c4)nc(C(F)(F)F)c3)cn2)cc1F [Compound 49] ?
> 1.67 h
